Values were extracted from PubChem BioAssay (NCATS).

- Test system: HeLa
- test_summary: Primary qHTS to identify gynecologic anti-cancer compounds using libraries of approved drugs and bioactive compounds (AID 1345084); also: % is scaled to controls: 0 for no effect and ±100 for the full control effect; nearly all actives have a fitted effect of over 55% in size
- conditions_used: Gynecologic cancer cell panel viability, ATPlite luminescence, 48 h; series mostly up to 57.5 µM
Records with an inconclusive call do not appear. Activity calls are given as the source filed them. Calls follow the shape of the dose curve; as a rule, active = well fitted cell-killing curve with a large enough effect; inconclusive = small, poorly fitted or top-dose-only effect, or effect the other way; inactive = flat fitted curve, though single readings scatter.
measured_parameter: activity change, negative = cytotoxicity

Sample records with activity change, negative = cytotoxicity:
CC(CCC1(O)OC2CC3C4CC=C5C[C@@H](O[C@@H]6O[C@H](CO)[C@@H](O[C@@H]7O[C@@H](C)[C@H](O)[C@@H](O)[C@H]7O)[C@H](O)[C@H]6O[C@@H]6O[C@@H](C)[C@H](O)[C@@H](O)[C@H]6O)CC[C@]5(C)C4CC[C@]3(C)[C@@]2(O)[C@@H]1C)CO[C@@H]1O[C@H](CO)[C@@H](O)[C@H](O)[C@H]1O (stereo partly drawn)	4.9% [at 11.6 µM] (inactive)
C=C1CO[C@@]2(O[C@H]3CC4C5CC=C6C[C@@H](O)C[C@@H](O[C@@H]7OC[C@H](O)[C@H](O[C@@H]8OC[C@@H](O)[C@H](O)[C@H]8O)[C@H]7O[C@@H]7O[C@@H](C)[C@H](OC(C)=O)[C@@H](OC(C)=O)[C@H]7OC(C)=O)[C@]6(C)C5CC[C@]4(C)[C@@H]3[C@@H]2C)[C@@H](O)[C@H]1OC1OC(C)C(O)C(O)C1O (stereo partly drawn)	-7.77% [at 6.55 µM] (inactive)

Bench note: what activity change, negative = cytotoxicity did C[C@H]1CC[C@@]2(OC1)O[C@H]1CC3[C@@H]4CC[C@@H]5C[C@@H](O[C@@H]6O[C@H](CO)[C@@H](O[C@@H]7O[C@@H](C)[C@H](O)[C@@H](O)[C@H]7O)[C@H](O)[C@H]6O[C@@H]6O[C@H](CO)[C@@H](O)[C@H](O)[C@H]6O)CC[C@]5(C)C4CC[C@]3(C)[C@H]1[C@@H]2C (stereo partly drawn) show? 24.8% [at 11.6 µM] (inactive)

====

- test_summary: Primary qHTS for inhibitors of nuclear receptor binding SET domain protein 2 (NSD2) in an RCH-ACV wild type WT cells (2C) (AID 1645877); also: potency is read from the fitted curve at half-maximal effect; nearly all actives have a fitted effect of over 70% in size
- conditions_used: RCH-ACV (leukaemia line) NSD2 WT (2C) viability, CellTiter-Glo, 72 h; series mostly up to 44.9 µM
Results filed as inconclusive are left out. Activity calls are given as the source filed them. Calls follow the shape of the dose curve; as a rule, active = well fitted inhibition curve with a large enough effect; inconclusive = small, poorly fitted or top-dose-only effect; inactive = no such curve, though single readings can be large or run the other way.
The entries below come with measured Potency values attached.

Sample records with Potency:
Cc1cc(F)c(C(=O)Nc2cccc(-c3nncn3C(C)C)n2)cc1-n1cnc(C2CC2)c1	9340 nM (active)
COC(=O)N1CCC(n2ncc3c(N4CCOCC4)nc(-c4ccc(NC(=O)NC5CC5)cc4)nc32)CC1	115 nM (active)
COc1ccc(C2=NC(c3ccc(Cl)cc3)C(c3ccc(Cl)cc3)N2C(=O)N2CCNC(=O)C2)c(OC(C)C)c1 (centres undefined)	2580 nM (active)

Bench note: what Potency did `NC(=O)c1cnc(N[C@@H]2CCCC[C@H]2N)nc1Nc1cccc(-n2nccn2)c1` show? 459 nM (active)

====

- Tested on: OV90
- test_summary: Primary qHTS to identify gynecologic anti-cancer compounds using libraries of approved drugs and bioactive compounds (AID 1345084); also: % is scaled to controls: 0 for no effect and ±100 for the full control effect; nearly all actives have a fitted effect of over 55% in size
- conditions_used: Gynecologic cancer cell panel viability, ATPlite luminescence, 48 h; series mostly up to 57.5 µM
Records with an inconclusive call do not appear. The source made the active and inactive calls. Calls come from the whole dose curve; as a rule, active = well fitted cell-killing curve with a large enough effect; inconclusive = small, poorly fitted or top-dose-only effect, or effect the other way; inactive = flat fitted curve, though single readings scatter.
The reply should be one of these categories: Y = active, N = inactive

Tell me the recorded outcome of this test for O=C(C(Cc1cccc(C(F)(F)F)c1)NS(=O)(=O)c1cc(F)c2c(c1)CCNC2)N1CCCC1 (configuration not stated) . N

Tell me the recorded outcome of this test for C=C1CC2OC(=O)C(COC)C2C(OC(=O)/C(C)=C\C)CC2(C)OC1=CC2=O (configuration not stated) . N

Tell me the recorded outcome of this test for C=C1C(OC2OC(CO)C(O)C(O)C2O)CC2C(C)(C)C(O)CCC2(C)C1CC/C(C)=C\COC(=O)CC(=O)O (configuration not stated) . N

Tell me the recorded outcome of this test for `CCCOc1ccc(S(=O)(=O)N2CCN(CCO)CC2)cc1-c1nc2c(CCC)cn(CC)c2c(=O)[nH]1` . N

Tell me the recorded outcome of this test for `COc1ccc(C[C@H]2COC(=O)[C@@H]2Cc2ccc(O[C@@H]3O[C@H](CO)[C@@H](O)[C@H](O)[C@H]3O)c(OC)c2)cc1OC` . N

Tell me the recorded outcome of this test for COC(=O)C[C@H]1C(C)(C)[C@H](OC(=O)c2ccccc2)C2CC3=C4CC(=O)O[C@@H](c5ccoc5)[C@]4(C)CCC3[C@@]1(C)C2=O (some centres not stated) . N

Tell me the recorded outcome of this test for `COc1ccc(C(=O)Nc2c(Cl)cncc2Cl)cc1OC1CCCC1` . N

Tell me the recorded outcome of this test for `CCOc1cccc(NC(=O)c2ccc(N3CCCC3)c(C(F)(F)F)c2)c1` . N
